Origin of values: ChEMBL document CHEMBL1201862

- Tested on: K562
- Protocol: NCI tumour cell line growth inhibition, 48 h
Activity calls are given as the source filed them. Cut-off read from the data, not from the text of the source: active = GI50 up to about 1.1 µM and inactive = higher.
Your response should consist of one outcome taken from 1 (yes) (active), 0 (no) (inactive)

Use the examples below as a reference point.
// query How was CCOC(=O)CCn1ncc(Cl)c(Cl)c1=O classified in this test?
// result 0 (no)

// query How was c1ccc2c(c1)Nc1cccc3c1c-2nc1cc2ccccc2cc13 classified in this test?
// result 1 (yes)

// query How was COC(=O)Cc1c(-c2c(CC(=O)OC)c3ccccc3n2C2OC(COC3OC(COC(C)=O)C(OC(C)=O)C(OC(C)=O)C3OC(C)=O)C(O)C(O)C2O)[nH]c2ccccc12 (stereo unspecified) classified in this test?
// result 0 (no)

Next:
// query How was CNc1cc(N)ccc1C(=O)N1CCC[C@H]1CO classified in this test?
// result 0 (no)

// query How was O=C(Nc1cccc([N+](=O)[O-])c1)C(=O)C(C(=O)c1ccccc1F)C1OC(=O)C2C=CC=CC21 (stereo unspecified) classified in this test?
// result 0 (no)

// query How was N#CC(C#N)=Cn1c(=S)[nH]c2ccc([N+](=O)[O-])cc21 classified in this test?
// result 0 (no)

// query How was CCOC(=O)c1cn2c(n1)sc1cc(C)c(C)cc12 classified in this test?
// result 0 (no)

----------
- System: NCI-H522
- Protocol: NCI tumour cell line growth inhibition, 48 h
Active and inactive are the calls of the source. No stated cut-off is given here; in the data, active = GI50 up to about 1.1 µM and inactive = higher.
The entries below come with measured GI50 values attached.

Consider the following illustrative entries.
// query Requested read-out GI50, target or system NCI-H522, entry COc1ccc(CNC2=N/C(=C\c3ccccc3Cl)C(=O)N2C)cc1
// result 20.5 µM (inactive)

// query Requested read-out GI50, target or system NCI-H522, entry CC1(C)OCC(CO)(CO)CO1
// result > 100 µM (inactive)

// query Requested read-out GI50, target or system NCI-H522, entry CN(C)CCNc1nc2c(c(=O)n(C)c(=O)n2C)n1C
// result > 100 µM (inactive)

// query Requested read-out GI50, target or system NCI-H522, entry O=[N+]([O-])C=C(c1ccc(Cl)cc1)c1ccc(Cl)cc1
// result 14.4 µM (inactive)

// query Requested read-out GI50, target or system NCI-H522, entry NC(=S)Nc1c(S(N)(=O)=O)cc(S(N)(=O)=O)c(Cl)c1Cl
// result > 100 µM (inactive)

// next entry
// query Requested read-out GI50, target or system NCI-H522, entry Oc1ccccc1/C=N/c1ccc(-c2nc3ccccc3[nH]2)cc1
// result 63.5 µM (inactive)

----------
- Test system: KM12
- Protocol: NCI tumour cell line growth inhibition, 48 h
Calls of active or inactive are those of the source. No stated cut-off is given here; in the data, active = GI50 up to about 1.1 µM and inactive = higher.
Property Measured: GI50

// query Form field: reported GI50 of CC(C)=CCN=C(N)N
// result > 100 µM (inactive)

// query Form field: reported GI50 of CC(C)(C)c1ccc(/C=N/NC(=O)CSCC(=O)N/N=C/c2ccc(C(C)(C)C)cc2)cc1
// result 2.53 µM (inactive)

// query Form field: reported GI50 of O=C(O)CCC(NC(=O)c1ccc(Oc2nc3ccccc3nc2C(=O)O)cc1)C(=O)O (configuration not stated)
// result > 100 µM (inactive)

// query Form field: reported GI50 of CC1(C)OCC(CO)(CO)CO1
// result > 100 µM (inactive)

// query Form field: reported GI50 of NC1=CN(Cc2ccccc2)C2=N/C(=C\c3ccccc3O)C(=O)N12
// result > 100 µM (inactive)

Next:
// query Form field: reported GI50 of O=C1CC(c2ccc(Cl)cc2)C2(C(=O)NC(=O)NC2=O)C(c2ccc(Cl)cc2)C1 (configuration not stated)
// result 36.4 µM (inactive)

// query Form field: reported GI50 of COC(=O)c1cc(C#N)[nH]c1-c1cccs1
// result > 100 µM (inactive)

// query Form field: reported GI50 of Cc1cc(N(C)c2ccccc2)nc(N(C)c2ccccc2)n1
// result 18.1 µM (inactive)

// query Form field: reported GI50 of CC(=O)Nc1nc(NC(C)=O)c2nc(CO)[nH]c2n1
// result > 100 µM (inactive)

// query Form field: reported GI50 of COc1ccc(OC)c(-c2cc(C(=O)O)c3cc4ccccc4cc3n2)c1
// result > 100 µM (inactive)
